Target: T1, human CD40 on cells (human, UniProt P25942 21-277)
T1 construct: also called CD40 receptor on human B cells
T1 sequence (P25942 21-277 limits assumed): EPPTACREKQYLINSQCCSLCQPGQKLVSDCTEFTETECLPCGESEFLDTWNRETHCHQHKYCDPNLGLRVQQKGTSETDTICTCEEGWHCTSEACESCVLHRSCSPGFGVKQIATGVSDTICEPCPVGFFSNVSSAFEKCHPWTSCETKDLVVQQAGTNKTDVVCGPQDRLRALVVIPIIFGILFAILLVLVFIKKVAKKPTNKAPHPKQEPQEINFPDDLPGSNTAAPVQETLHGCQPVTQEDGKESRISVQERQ
Assay: flow cytometry, labelled CD40L on CD40-293T cells, antibody at 10 ug/ml
Overview of recorded Ligand Binding Inhibition (%) for various binders
recordedEndpoint: Ligand Binding Inhibition (%)

* 33H9 (antibody, IgG4, V domains shown, also called 4897-1) VH: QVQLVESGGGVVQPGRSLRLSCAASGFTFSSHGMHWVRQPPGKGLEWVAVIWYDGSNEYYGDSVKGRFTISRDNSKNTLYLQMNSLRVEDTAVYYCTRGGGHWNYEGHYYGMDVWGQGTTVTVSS VL: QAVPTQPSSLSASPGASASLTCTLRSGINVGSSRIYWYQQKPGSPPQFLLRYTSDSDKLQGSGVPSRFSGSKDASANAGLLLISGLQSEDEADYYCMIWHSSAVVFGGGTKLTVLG | 3
* 36F3 (antibody, IgG4, V domains shown, also called 4891-1) VH: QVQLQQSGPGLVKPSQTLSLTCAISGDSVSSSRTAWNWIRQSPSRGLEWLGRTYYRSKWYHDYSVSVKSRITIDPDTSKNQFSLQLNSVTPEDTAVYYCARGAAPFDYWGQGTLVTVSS VL: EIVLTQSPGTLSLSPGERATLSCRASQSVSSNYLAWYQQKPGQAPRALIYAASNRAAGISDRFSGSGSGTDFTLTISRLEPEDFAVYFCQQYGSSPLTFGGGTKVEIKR | 14
* 4G7 (antibody, IgG4, V domains shown, also called 4869-1) VH: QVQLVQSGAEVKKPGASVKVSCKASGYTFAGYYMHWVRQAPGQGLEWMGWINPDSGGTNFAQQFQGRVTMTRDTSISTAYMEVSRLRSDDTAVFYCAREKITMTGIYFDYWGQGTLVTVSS VL: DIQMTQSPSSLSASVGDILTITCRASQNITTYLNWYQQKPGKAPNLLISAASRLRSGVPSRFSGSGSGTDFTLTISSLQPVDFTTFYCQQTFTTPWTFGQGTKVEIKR | 14
